Tested on: LoVo-Dox
Assay protocol: SRB colorimetric cell growth inhibition assay, LoVo-Dox (MDR)
Assay type: cell-based
Condition context: Homo sapiens, read-out: LC50 LOVO-DOX, LOVO-DOX; LC=cell killing (cytotoxic effect)
Quantity measured: CC50 (µM)
Unit µM implied. Number only.

Smiles representation	CC50, µM
COc1cc(-c2c3n(c4c(=O)oc5cc(OC(=O)[C@H](N)C(C)C)c(OC)cc5c24)CCc2cc(OC(=O)[C@H](N)C(C)C)c(OC)cc2-3)ccc1OC(=O)[C@H](N)C(C)C	8.25
COc1cc(-c2c3c4cc(OC)c(OC(=O)[C@@H](N)C(C)C)cc4oc(=O)c3n3ccc4c(OC(=O)[C@@H](N)C(C)C)c(OC)c(OC)cc4c23)ccc1OC(=O)[C@@H](N)C(C)C	2.8
COc1cc(-c2c3n(c4c(=O)oc5cc(OC(=O)[C@@H](N)C(C)C)c(OC)cc5c24)CCc2cc(OC(=O)[C@@H](N)C(C)C)c(OC)cc2-3)ccc1OC(=O)[C@@H](N)C(C)C	10.1

Consider now this further molecule.
Ask | Item under review: `COc1cc(-c2c3n(c4c(=O)oc5cc(OC(=O)[C@H](CO)NC(=O)OC(C)(C)C)c(OC)cc5c24)CCc2c-3cc(OC)c(OC)c2OC(=O)[C@H](CO)NC(=O)OC(C)(C)C)ccc1OC(=O)[C@H](CO)NC(=O)OC(C)(C)C` . Reported CC50?
Reply | 9.15

---

System: HeLa
Assay protocol: SRB colorimetric cell growth inhibition assay, HeLa
Type: cell-based
Condition context: Homo sapiens, HeLa; cell killing (cytotoxic effect); read-out: LC50 HELA
Listing of recorded CC50 by entry.

Past entries and their recorded results:
Smiles representation	Measured on	Measurement
COc1cc(-c2c3c4cc(OC)c(OC(=O)[C@H](N)C(C)C)cc4oc(=O)c3n3ccc4cc(OC(=O)[C@H](N)C(C)C)c(OC)cc4c23)ccc1OC(=O)[C@H](N)C(C)C	HeLa	878 nM
COc1cc(-c2c3c4cc(OC)c(OC(=O)[C@H](C)N)cc4oc(=O)c3n3ccc4cc(OC(=O)[C@H](C)N)c(OC)cc4c23)ccc1OC(=O)[C@H](C)N	HeLa	651 nM

Consider now this further molecule.
Ask | Item under review: `COc1cc(-c2c3c4cc(OC)c(OC(=O)[C@@H](N)CC(C)C)cc4oc(=O)c3n3ccc4cc(OC(=O)[C@@H](N)CC(C)C)c(OC)cc4c23)ccc1OC(=O)[C@@H](N)CC(C)C` . Reported CC50?
Reply | 10500 nM

---

Test system: HeLa-APL
Assay protocol: SRB colorimetric cell growth inhibition assay, HeLa-APL (aplidine resistant)
Format: cell-based
Condition context: HELA-APL; cell killing (cytotoxic effect); read-out: LC50 HELA-APL
Listing of recorded CC50 by entry.
Unit µM implied. Number only.

Past entries and their recorded results:
Molecule	Unit tag	CC50
COc1cc2c(cc1O)oc(=O)c1c2c(-c2ccc(OC(=O)[C@H](C)N)c(OC)c2)c2c3cc(OC)c(O)cc3ccn21.Cl [Compound 238]	µM	1.76
COc1cc(-c2c3c4cc(OC)c(OC(=O)[C@H](C)N)cc4oc(=O)c3n3ccc4cc(O)c(OC)cc4c23)ccc1O.Cl [Compound 240]	µM	7.61
COc1cc(-c2c3c4cc(OC)c(OC(=O)[C@H](C)N)cc4oc(=O)c3n3ccc4c(OC(=O)[C@H](C)N)c(OC)c(OC)cc4c23)ccc1OC(=O)[C@H](C)N [Compound 191]	µM	5.96

Consider now this further molecule.
Ask | Item under review: COc1cc(-c2c3c4cc(OC)c(OC(=O)[C@H](C)N)cc4oc(=O)c3n3ccc4c(OC(=O)[C@H](C)N)c(OC)c(OC)cc4c23)ccc1OC(=O)[C@H](C)N [Compound 16] . Reported CC50?
Reply | 2.38
